Give pEC50 for every item shown.
- System: Influenza virus, strain A/PR/8/34
- assay-method-text: microbe, parasite or virus in culture
- Assay type: cell-based
- assay-conditions: read-out: bDNA EC50; Table 2; mean EC50; viral RNA level 50% of control wells
pEC50: −log10 of the molar value.

{"sample-smiles": "O=C(O)[C@H]1C2CCC(CC2)[C@@H]1Nc1nc(-c2n[nH]c3ncc(F)cc23)ncc1F", "pEC50": "> 5.48"}

Switching to the query record.
Task: Lookup: pEC50 / Influenza virus, strain A/PR/8/34 / O=C(O)[C@@H]1CCCC2(CCCC2)[C@@H]1Nc1nc(-c2n[nH]c3ncc(F)cc23)ncc1F
Output: > 5.48
